target: human MAO-A (Homo sapiens (Human), UniProt P21397); assay: Human MAO-A assay (Amplex Red fluorescence, recombinant enzyme); conditions: substrate p-tyramine 150 μM
Sequence (P21397 whole entry): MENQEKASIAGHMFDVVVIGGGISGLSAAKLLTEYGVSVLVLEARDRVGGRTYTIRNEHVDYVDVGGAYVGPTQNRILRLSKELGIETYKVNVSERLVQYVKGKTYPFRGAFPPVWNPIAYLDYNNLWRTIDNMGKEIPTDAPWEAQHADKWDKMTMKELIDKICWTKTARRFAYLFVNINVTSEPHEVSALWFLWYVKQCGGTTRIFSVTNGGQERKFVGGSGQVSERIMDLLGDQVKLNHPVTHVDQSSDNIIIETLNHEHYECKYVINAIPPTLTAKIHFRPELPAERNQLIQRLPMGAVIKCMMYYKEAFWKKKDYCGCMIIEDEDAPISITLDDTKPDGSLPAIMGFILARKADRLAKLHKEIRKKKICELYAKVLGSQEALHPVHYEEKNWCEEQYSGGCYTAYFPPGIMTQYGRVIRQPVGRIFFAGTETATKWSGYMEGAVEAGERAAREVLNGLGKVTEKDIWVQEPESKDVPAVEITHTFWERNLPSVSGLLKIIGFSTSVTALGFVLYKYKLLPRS
pIC50: −log10 of the molar value.
METRIC: pIC50

GIVEN_SMILES	METRIC	VAL
O=C(Nc1ccc2c(ccn2C(=O)c2ccc(Cl)c(F)c2)n1)c1ccc(Cl)c(F)c1	pIC50	< 5.00
O=C(Nc1cc2cc[nH]c2cn1)c1ccc(F)c(F)c1	pIC50	< 5.00
O=C(Nc1ccc2[nH]ccc2n1)c1ccc(Cl)c(F)c1	pIC50	< 5.00
O=C(Nc1cc2cc[nH]c2cn1)c1ccc(Cl)c(Cl)c1	pIC50	> 5.00
O=C(Nc1ccc2[nH]ccc2n1)c1ccc(F)c(F)c1	pIC50	< 5.00
O=C(Nc1ccc2[nH]ccc2n1)c1ccc(F)c(Cl)c1	pIC50	< 5.00
O=C(Nc1ccc2[nH]ccc2n1)c1ccc(Cl)c(Cl)c1	pIC50	< 5.00
O=C(Nc1cc2cc[nH]c2cn1)c1ccc(F)c(Cl)c1	pIC50	> 5.00

---

pIC50: −log10 of the molar value.
Hi! I'm sharing some pIC50 results obtained with rat MAO-B (Rattus norvegicus (Rat)).
Sequence (P19643 whole entry): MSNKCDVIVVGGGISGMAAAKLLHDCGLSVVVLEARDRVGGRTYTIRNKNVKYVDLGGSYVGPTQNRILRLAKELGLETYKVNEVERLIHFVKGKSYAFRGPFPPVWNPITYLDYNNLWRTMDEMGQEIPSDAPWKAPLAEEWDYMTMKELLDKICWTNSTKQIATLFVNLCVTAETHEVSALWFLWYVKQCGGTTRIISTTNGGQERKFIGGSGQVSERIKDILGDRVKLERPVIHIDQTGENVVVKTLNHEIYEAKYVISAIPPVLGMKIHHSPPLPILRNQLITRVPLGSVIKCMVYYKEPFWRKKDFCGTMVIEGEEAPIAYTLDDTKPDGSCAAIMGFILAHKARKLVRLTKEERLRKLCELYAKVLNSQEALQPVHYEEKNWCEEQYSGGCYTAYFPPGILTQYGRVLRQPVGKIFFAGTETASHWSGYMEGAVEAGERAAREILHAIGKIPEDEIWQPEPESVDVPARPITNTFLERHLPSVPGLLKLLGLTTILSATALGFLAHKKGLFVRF

GIVEN_SMILES	ASSAYED_SYSTEM	pIC50
O=C(Nc1cc2cc[nH]c2cn1)c1ccc(Cl)c(Cl)c1	rat MAO-B (Rattus norvegicus (Rat))	6.65
O=C(Nc1ccc2[nH]ccc2n1)c1ccc(F)c(Cl)c1	rat MAO-B (Rattus norvegicus (Rat))	8.31
O=C(Nc1ccc2[nH]ccc2n1)c1ccc(Cl)c(F)c1	rat MAO-B (Rattus norvegicus (Rat))	7.07
O=C(Nc1ccc2[nH]ccc2n1)c1ccc(F)c(F)c1	rat MAO-B (Rattus norvegicus (Rat))	6.82

---

pIC50: −log10 of the molar value.
Hi! I'm sharing some pIC50 results obtained with UniProt P21396.
Sequence (P21396 whole entry): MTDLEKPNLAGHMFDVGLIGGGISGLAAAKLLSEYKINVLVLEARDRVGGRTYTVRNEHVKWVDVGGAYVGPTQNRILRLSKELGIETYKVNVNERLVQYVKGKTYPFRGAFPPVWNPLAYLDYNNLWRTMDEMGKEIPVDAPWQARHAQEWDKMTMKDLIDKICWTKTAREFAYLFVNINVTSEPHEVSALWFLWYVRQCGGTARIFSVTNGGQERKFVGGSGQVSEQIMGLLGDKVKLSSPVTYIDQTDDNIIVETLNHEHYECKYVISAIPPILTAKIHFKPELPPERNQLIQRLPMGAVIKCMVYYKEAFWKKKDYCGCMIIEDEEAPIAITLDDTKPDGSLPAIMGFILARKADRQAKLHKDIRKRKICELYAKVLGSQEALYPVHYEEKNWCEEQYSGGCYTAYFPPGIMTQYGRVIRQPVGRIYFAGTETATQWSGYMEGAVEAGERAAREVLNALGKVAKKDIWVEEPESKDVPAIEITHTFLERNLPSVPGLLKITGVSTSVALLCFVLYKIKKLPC

GIVEN_SMILES	pIC50
O=C(Nc1ccc2[nH]ccc2n1)c1ccc(Cl)c(F)c1	< 5.00
O=C(Nc1cc2cc[nH]c2cn1)c1ccc(F)c(Cl)c1	> 5.00
O=C(Nc1cc2cc[nH]c2cn1)c1ccc(F)c(F)c1	< 5.00
O=C(Nc1cc2cc[nH]c2cn1)c1ccc(Cl)c(Cl)c1	≤ 5.00
O=C(Nc1ccc2[nH]ccc2n1)c1ccc(Cl)c(Cl)c1	< 5.00

From: patent US9738640B2
